Attribution: the Deep4Chem optical property database

experiment: solvent given as SMILES; conditions: in CC#N
Output schema: class label derived from emission maximum. Mapping: bucket 1 (below 400 nm), bucket 2 (400 nm to below 500 nm), bucket 3 (500 nm or more)

Cc1cc(C(F)(F)F)nc2c1ccc1nc(-c3ccc(Cl)cc3)cn12	bucket 2
F[B-]1(F)n2ccnc2-c2cccc[n+]21	bucket 1
O=P1(c2ccccc2)C(c2ccc(N(c3ccccc3)c3ccccc3)cc2)=Cc2ccccc21 (configuration not stated)	bucket 3
CN(C)c1ccc(/C=C/C=C/c2nc3ccccc3s2)cc1	bucket 3
CN(C)c1ccc(-c2nc3nccnc3n2-c2ccc(N(C)C)cc2)cc1	bucket 2
COc1cc(OC)cc(C2=[O+][B-](F)(F)OC(c3ccc4ccccc4c3)=C2)c1	bucket 3

Exam item: Category lookup for the compound CN(C)c1ccc2c3c(ccc2c1)CCCC3=O
Marked response: bucket 3

Exam item: Class? Entry: Cc1cc(C)n2c1C=C1c3ccccc3C(c3[nH]c4ccccc4c3C)=[N+]1[B-]2(F)F
Marked response: bucket 3

Exam item: Record N#Cc1ccc2[nH]ccc2c1 — which class?
Marked response: bucket 1
